# experimental-target: MaxRH (Homo sapiens, UniProt P61244, K77E/M74V/Q72L/R75Q/R76A/Y73S)
# Construct: 6xHis tag + TEV site (N, cleaved yes); made in house; host or cells: E. coli BL21(DE3) pLysS
# Sequence (P61244 whole entry Q72L/Y73S/M74V/R75Q/R76A/K77E): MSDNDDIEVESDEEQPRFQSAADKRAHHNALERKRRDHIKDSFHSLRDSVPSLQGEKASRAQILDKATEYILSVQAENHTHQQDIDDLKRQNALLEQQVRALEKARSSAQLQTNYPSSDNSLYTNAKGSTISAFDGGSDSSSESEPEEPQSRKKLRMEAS
# procedure-summary: Tyrosine fluorescence quenching titration
# Assay type: binding
# condition-set: 1 µM MaxRH, pH 6; read-out: dissociation constant (KD)
assay-endpoint: Kd
Form entry: enter the amount, then its unit.

Given the entry O=C1NC(=S)S/C1=C\c1ccc(C(=O)O)cc1 [34RH] , report its measured Kd.
9.1 µM

====

# experimental-target: MaxRH-Y115F/Y123F (Homo sapiens, UniProt P61244, K77E/M74V/Q72L/R75Q/R76A/Y115F/Y123F/Y73S)
# Construct: 6xHis tag + TEV site (N, cleaved yes); made in house; host or cells: E. coli BL21(DE3) pLysS
# Sequence (P61244 whole entry Q72L/Y73S/M74V/R75Q/R76A/K77E/Y115F/Y123F): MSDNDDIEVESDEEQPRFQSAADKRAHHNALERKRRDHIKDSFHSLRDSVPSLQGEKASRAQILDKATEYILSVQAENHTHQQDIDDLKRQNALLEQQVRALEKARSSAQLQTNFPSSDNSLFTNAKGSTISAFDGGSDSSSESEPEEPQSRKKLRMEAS
# procedure-summary: Tyrosine fluorescence quenching titration
# Type: binding
# condition-set: 1 µM MaxRH-Y115F/Y123F
assay-endpoint: pKd
The value called pKd is obtained by taking minus log10 of the concentration in mol/L.

Given the entry O=C1NC(=S)S/C1=C\c1ccc(C(=O)O)cc1 [34RH] , report its measured pKd.
4.83

====

# experimental-target: Myc402–412 peptide (Homo sapiens, UniProt P01106)
assay-endpoint: Kd (µM)
Provide the reading as a plain figure in µM.

Given the entry O=C1NC(=S)S/C1=C\c1ccc(C(=O)O)cc1 [34RH] , report its measured Kd.
11.5
